Source of measurements: patent US9250238B2

TARGET OR SYSTEM: UniProt P02872
Sequence (P02872 24-273): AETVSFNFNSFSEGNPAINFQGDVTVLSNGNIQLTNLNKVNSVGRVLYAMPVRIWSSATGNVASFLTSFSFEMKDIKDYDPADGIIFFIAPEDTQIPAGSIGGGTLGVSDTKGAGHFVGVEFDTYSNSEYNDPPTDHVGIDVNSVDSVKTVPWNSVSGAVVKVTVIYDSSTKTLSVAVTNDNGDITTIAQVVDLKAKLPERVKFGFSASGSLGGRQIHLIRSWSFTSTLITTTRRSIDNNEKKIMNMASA
ASSAY REMARKS: Flow immunocytometry of peanut lectin binding to lactose-conjugated microspheres
MEASUREMENT SETUP: 6 attached to NHS-activated latex microspheres, FITC secondary antibody
MEASURE NAME: Kd (µM)

COMPOUND	MEASURE NAME	RECORDED NUMBER
NNC(=O)COCCOCCOCCOCCOCCOCCOCC(=O)NN[C@@H]1OC(CO)[C@@H](OC2OC(CO)[C@H](O)[C@H](O)[C@@H]2O)[C@H](O)C1O (stereo partly shown) [conjugate 6]	Kd	0.05
